src = patent US20130310313A1

Hi there, I'd appreciate the recorded pEC50 for every entry that follows.
Target: T1, insulin receptor on human lymphocyte cells (IM-9) (human, UniProt P06213 28-1382)
T1 construct: whole, on cells; Endogenous receptor of IM-9 cells; also called IR; insulin receptors
Test: whole cell receptor binding assay on IM-9 cells with 125I-insulin; EC50 of promoting 125I-insulin binding
# log scale: pEC50 equals minus log10 of the concentration in mol/L

Entry SRCQGKSSWPGLVGSTGAA (synthetic) [IRBP-1-19 (SEQ ID NO:2)] has what pEC50?
7.81

Entry RVRVWVTERGIVARPPTIG [IRBP-50-68 (SEQ ID NO:6)] has what pEC50?
9.14

Entry IVARPPTIG (synthetic) [IRBP-60-68 (SEQ ID NO:7)] has what pEC50?
9.11
